The measurements presented in this section are drawn from PubChem BioAssay (NCI).

Let's look at some compounds and their measured TGI.
# System: HT29 colon
# Assay overview: NCI tumour cell line growth inhibition, 48 h

# example entries with known answers
-- ask Identify the reported TGI for the following entry. C=C1c2cc3c(cc2CC12Cc1cc4c(cc1C2=O)CCC4)CCC3 (stereo unspecified)
-- reply > 100 µM

-- ask Item `O=C(Nc1cc(Nc2ncccc2-c2ncnc3nc[nH]c23)ccc1F)c1cc(C(F)(F)F)cc(C(F)(F)F)c1` : provide TGI
-- reply 4.03 µM

-- ask Output TGI of `Nc1ccccc1C(=O)/C=C/c1c(O)ccc2ccccc12`
-- reply > 100 µM

-- ask Please report TGI for the following compound: `CCCC(=O)C1=C(O)C(Cc2c(O)c(C)c(O)c(C(=O)CCC)c2O)=C(O)C(C)(C)C1=O`
-- reply > 50 µM

-- ask Indicate its recorded TGI; the compound in question is CC(=O)Oc1cc(C(F)(F)F)ccc1C(=O)OC1(C)OC(=O)c2ccc(C(F)(F)F)cc2O1 (stereo unspecified)
-- reply > 100 µM

-- ask Give a short answer stating reported TGI for `Cn1ccnc1C(O)(c1nccn1C)c1nccn1C` .
-- reply > 100 µM

-- ask Supply TGI value. Item: CC(C)=C1CCC(CN(C)C)C1=O (stereo unspecified)
-- reply 41.1 µM

-- ask Complete the entry with TGI for `CC(C)c1[nH]nc2c1N=C(c1ccccc1Cl)c1cc([N+](=O)[O-])ccc1N2`
-- reply > 22.2 µM

Further cases:
-- ask Read off the recorded TGI for Nc1ccccc1O.O.O=C(O)C1[O][Sb][O]C1C(=O)O (stereo unspecified)
-- reply > 56.2 µM
